target: HLA-A*02:01; experiment: IEDB peptide-MHC binding, purified MHC/competitive/radioactivity; bounds were set here for any values at or beyond the usual limits of such assays; settings: source organism: Human alphaherpesvirus 1
pIC50: −log10 of the molar value.
Decide using pIC50: a value greater than or equal to 7 is 1 (yes), a smaller one is 0 (no).

- seq_text: "GLFQEAYPL"
  measurement_target: "HLA-A*02:01"
  classification: "1 (yes)"
- seq_text: "SLSTYTVPI"
  measurement_target: "HLA-A*02:01"
  classification: "1 (yes)"
- seq_text: "LLLAGTPAV"
  measurement_target: "HLA-A*02:01"
  classification: "1 (yes)"
- seq_text: "GLFQPFMFV"
  measurement_target: "HLA-A*02:01"
  classification: "1 (yes)"
- seq_text: "ILYSVLQHL"
  measurement_target: "HLA-A*02:01"
  classification: "1 (yes)"

hey, is pIC50 for this one >= 7? KTWFLVPLI 1 (yes)

Does the sequence HMFCDPMCA have recorded pIC50 that is 7 or more? 0 (no)

---

target: HLA-A*02:01; experiment: IEDB peptide-MHC binding, purified MHC/competitive/radioactivity; bounds were set here for any values at or beyond the usual limits of such assays; settings: source organism: Human alphaherpesvirus 1
Define the label as Condition met when IC50 is strictly less than 40 nM and as Condition not met in all remaining cases.

For orientation, consider the following solved cases.
- seq_text: "KLAVYYYII"
  classification: "Condition met"
- seq_text: "FLARFWTRA"
  classification: "Condition not met"

# input for lookup
Consider GLARLDALV . Does its IC50 lie strictly below 40 nM? Condition met

---

target: HLA-A*02:01; experiment: IEDB peptide-MHC binding, purified MHC/competitive/radioactivity; bounds were set here for any values at or beyond the usual limits of such assays; settings: source organism: Human alphaherpesvirus 1
experimental_readout: pIC50
Please keep in mind that pIC50 is minus log10 of the molar concentration; only the number is needed.

- seq_text: "FMHIWLQAA"
  pIC50: 7.09
- seq_text: "FALDRPCLV"
  pIC50: 7.12
- seq_text: "AVLAFVALI"
  pIC50: 6.97
- seq_text: "AIVVVIILV"
  pIC50: 5.16
- seq_text: "RLFDFFSRV"
  pIC50: 9.70
- seq_text: "ALSPALTAL"
  pIC50: 6.71
- seq_text: "VVTAIVYVV"
  pIC50: 6.58
- seq_text: "IIPFLLVLV"
  pIC50: 7.26
- seq_text: "RLLQSFLKV"
  pIC50: 7.09
- seq_text: "MMLRDRWSL"
  pIC50: 7.85

Consider YLDEAGGHL . Its measured pIC50 is 7.64

Measured pIC50 of RLPRYLACL : 7.12

---

molecular target: HLA-A*02:01; experiment: IEDB peptide-MHC binding, purified MHC/competitive/radioactivity; bounds were set here for any values at or beyond the usual limits of such assays; conditions: source organism: Human alphaherpesvirus 1
experimental_readout: pIC50
Remember the convention: pIC50 equals -log10 of concentration in molar.

- seq_text: "SLMNVDAAV"
  readout_number: 8.01

Given item VLDEVMSTL , the value recorded as its pIC50 is 7.35

Kindly note the recorded pIC50 for TLSGMGYYL , which is 6.83

According to the records, this sequence SQTQPPAPV displays pIC50 of 6.11

The recorded pIC50 for ALGERLDAV is 7.60

Entry FILDNPGFV , pIC50 reported as 7.96

The sequence listed as YVPPDMRGV shows pIC50 equal to 6.29

Just so you know, measured pIC50 for YMAKLHAYL came out at 7.96
